assayProtocol: Cytotoxicity assay
Assay type: cell-based
conditionInfo: human; HEK293 cells; mean (n = 2); read-out: Cytotoxicity: concentration of compound at 50% cytotoxicity (IC50)
pIC50: −log10 of the molar value.
Reported values of pIC50 for individual entries

COc1cccc2c(CC(=O)NCCCNCCCCCCCNCCCNC(=O)Cc3c[nH]c4c(OC)cccc34)c[nH]c12.O=C(O)C(F)(F)F.O=C(O)C(F)(F)F [Compound 19c] | < 4.42
O=C(Cc1c[nH]c2ccccc12)NCCCNCCCCCCNCCCNC(=O)Cc1c[nH]c2ccccc12.O=C(O)C(F)(F)F.O=C(O)C(F)(F)F [Compound 14b] | < 4.39
O=C(Cc1c[nH]c2ccc(Br)cc12)NCCCNCCCCCCCCCCNCCCNC(=O)Cc1c[nH]c2ccc(Br)cc12.O=C(O)C(F)(F)F.O=C(O)C(F)(F)F [Compound 15e] | < 4.49

Prompt line: Fill in pIC50 for record Cc1ccc2[nH]cc(CC(=O)NCCCNCCCCCCCCNCCCNC(=O)Cc3c[nH]c4ccc(C)cc34)c2c1.O=C(O)C(F)(F)F.O=C(O)C(F)(F)F [Compound 17d]
Response line: < 4.41

Prompt line: Fill in pIC50 for record Cc1cccc2c(CC(=O)NCCCNCCCCCCCNCCCNC(=O)Cc3c[nH]c4c(C)cccc34)c[nH]c12.O=C(O)C(F)(F)F.O=C(O)C(F)(F)F [Compound 20c]
Response line: < 4.41

Prompt line: Fill in pIC50 for record O=C(Cc1c[nH]c2ccc(Br)cc12)NCCCNCCCCCCCNCCCNC(=O)Cc1c[nH]c2ccc(Br)cc12.O=C(O)C(F)(F)F.O=C(O)C(F)(F)F [Compound 15c]
Response line: < 4.47

Prompt line: Fill in pIC50 for record COc1ccc2[nH]cc(CC(=O)NCCCNCCCCCCCCNCCCNC(=O)Cc3c[nH]c4ccc(OC)cc34)c2c1.O=C(O)C(F)(F)F.O=C(O)C(F)(F)F [Compound 16d]
Response line: < 4.43

Prompt line: Fill in pIC50 for record Cc1ccc2[nH]cc(CC(=O)NCCCNCCCCCCCNCCCNC(=O)Cc3c[nH]c4ccc(C)cc34)c2c1.O=C(O)C(F)(F)F.O=C(O)C(F)(F)F [Compound 17c]
Response line: < 4.41

Prompt line: Fill in pIC50 for record COc1cccc2c(CC(=O)NCCCNCCCCCCCCNCCCNC(=O)Cc3c[nH]c4c(OC)cccc34)c[nH]c12.O=C(O)C(F)(F)F.O=C(O)C(F)(F)F [Compound 19d]
Response line: < 4.43

Prompt line: Fill in pIC50 for record O=C(Cc1c[nH]c2c(F)cccc12)NCCCNCCCCCCNCCCNC(=O)Cc1c[nH]c2c(F)cccc12.O=C(O)C(F)(F)F.O=C(O)C(F)(F)F [Compound 18b]
Response line: < 4.40

Prompt line: Fill in pIC50 for record O=C(Cc1c[nH]c2c(F)cccc12)NCCCNCCCCCCCCCCNCCCNC(=O)Cc1c[nH]c2c(F)cccc12.O=C(O)C(F)(F)F.O=C(O)C(F)(F)F [Compound 18e]
Response line: < 4.43
